# Test system: Bacteroides thetaiotaomicron
# Method notes: growth AUC relative to DMSO control (median of replicates) (fraction); higher = more growth (less inhibition), active = hit call of the paper
# Recorded conditions: 20 µM; 24 h
Endpoint: growth AUC
Simply state the number, no unit and no words.

Worked cases, growth AUC given:
COP(N)(=S)Oc1ccccc1C(=O)OC(C)C (stereo not drawn); 0.998
N#CC(CCc1ccc(Cl)cc1)(Cn1cncn1)c1ccccc1 (stereo not drawn); 0.94
CN1COCN(Cc2cnc(Cl)s2)/C1=N/[N+](=O)[O-]; 0.999

Provide growth AUC value for the following molecule: CC1(C)OC(c2ccco2)CN1C(=O)C(Cl)Cl (stereo not drawn) 0.992

Supply growth AUC value. Item: `CN(C)c1nc(=O)n(C2CCCCC2)c(=O)n1C` 1.05

State, in one line, measured growth AUC of `CN(C)C(=O)Nc1cccc(C(F)(F)F)c1` 0.967

Fill in reported growth AUC for this entry: `CNC(=O)CSP(=O)(OC)OC` 0.997

Identify growth AUC associated with the molecule `Oc1ccccc1Cl` 0.983

Give recorded growth AUC. `O=C(O)C(F)(F)C(F)(F)C(F)(F)C(F)(F)C(F)(F)C(F)(F)C(F)(F)F` 1.04

Supply measured growth AUC of `CCOC(=O)CCN(SN(C)C(=O)Oc1cccc2c1OC(C)(C)C2)C(C)C` in your reply. 1.02

Answer with the recorded growth AUC for the molecule listed here: `CCc1cc(C)cc(CC)c1-c1c(OC(=O)C(C)(C)C)n2n(c1=O)CCOCC2` 1.01

Supply recorded growth AUC for C#CCOS(=O)OC1CCCCC1Oc1ccc(C(C)(C)C)cc1 (mixture of isomers) here. 0.991

Return the recorded growth AUC value; entry: CCOc1cc(C(C)(C)C)ccc1C1COC(c2c(F)cccc2F)=N1 (stereo not drawn) 0.978

# return recorded growth AUC for entry `CC(=O)O.CC(=O)O.CC(=O)O.NC(N)=NCCCCCCCCNCCCCCCCCN=C(N)N` 0.0154

Tell us which growth AUC value is on record for O=c1oc2ccccc2c(O)c1C(CC(O)c1ccc(-c2ccc(Br)cc2)cc1)c1ccccc1 (stereo not drawn) 0.733

Please indicate growth AUC recorded for `COP(=S)(OC)Oc1nc(Cl)c(Cl)cc1Cl` 0.96

Look up and state reported growth AUC for `COc1ccc(/C(=C/C(=O)N2CCOCC2)c2ccc(Cl)cc2)cc1OC` 0.978
